Test system: panel of seven human cancer cell lines
Experiment: Antiproliferative activity over the panel of seven human cancer cell lines
Assay type: cell-based
Settings: read-out: average IC50 over the seven cell lines
measure: pIC50
// pIC50 here means minus log10 of the molar concentration (mol/L)

Solved cases (3 shown):
CCOC(=O)c1oc2c(OC)cccc2c1Nc1cc(OC)c(OC)c(OC)c1; 6.17
COC(=O)c1oc2c(OC)cccc2c1Nc1cc(OC)c(OC)c(OC)c1; 6.43
COC(=O)c1oc2ccccc2c1Nc1cc(OC)c(OC)c(OC)c1; 5.48

# input Supply reported pIC50 belonging to this molecule: CCOC(=O)c1oc2cc(OC)ccc2c1Nc1cc(OC)c(OC)c(OC)c1
# output 7.47

----------
Listing of recorded pIC50 by entry.
Test system: PBL not stimulated with PHA
Experiment: Cytotoxicity in noncancer cells, resting PBL
Assay type: cell-based
Details: Homo sapiens, 72 h, read-out: IC50 PBLresting
pIC50: −log10 of the molar value.

CCOC(=O)c1oc2cc(OC)ccc2c1Nc1cc(OC)c(OC)c(OC)c1 [Compound 3h]; < 5.00

Please turn your attention to the following entry.
# input Supply reported pIC50 belonging to this compound: COC(=O)c1oc2cc(OC)ccc2c1Nc1cc(OC)c(OC)c(OC)c1 [Compound 3g]
# output < 5.00
